Molecular target: p110δ/p85α (Homo sapiens, UniProt O00329)
Sequence (O00329 whole entry): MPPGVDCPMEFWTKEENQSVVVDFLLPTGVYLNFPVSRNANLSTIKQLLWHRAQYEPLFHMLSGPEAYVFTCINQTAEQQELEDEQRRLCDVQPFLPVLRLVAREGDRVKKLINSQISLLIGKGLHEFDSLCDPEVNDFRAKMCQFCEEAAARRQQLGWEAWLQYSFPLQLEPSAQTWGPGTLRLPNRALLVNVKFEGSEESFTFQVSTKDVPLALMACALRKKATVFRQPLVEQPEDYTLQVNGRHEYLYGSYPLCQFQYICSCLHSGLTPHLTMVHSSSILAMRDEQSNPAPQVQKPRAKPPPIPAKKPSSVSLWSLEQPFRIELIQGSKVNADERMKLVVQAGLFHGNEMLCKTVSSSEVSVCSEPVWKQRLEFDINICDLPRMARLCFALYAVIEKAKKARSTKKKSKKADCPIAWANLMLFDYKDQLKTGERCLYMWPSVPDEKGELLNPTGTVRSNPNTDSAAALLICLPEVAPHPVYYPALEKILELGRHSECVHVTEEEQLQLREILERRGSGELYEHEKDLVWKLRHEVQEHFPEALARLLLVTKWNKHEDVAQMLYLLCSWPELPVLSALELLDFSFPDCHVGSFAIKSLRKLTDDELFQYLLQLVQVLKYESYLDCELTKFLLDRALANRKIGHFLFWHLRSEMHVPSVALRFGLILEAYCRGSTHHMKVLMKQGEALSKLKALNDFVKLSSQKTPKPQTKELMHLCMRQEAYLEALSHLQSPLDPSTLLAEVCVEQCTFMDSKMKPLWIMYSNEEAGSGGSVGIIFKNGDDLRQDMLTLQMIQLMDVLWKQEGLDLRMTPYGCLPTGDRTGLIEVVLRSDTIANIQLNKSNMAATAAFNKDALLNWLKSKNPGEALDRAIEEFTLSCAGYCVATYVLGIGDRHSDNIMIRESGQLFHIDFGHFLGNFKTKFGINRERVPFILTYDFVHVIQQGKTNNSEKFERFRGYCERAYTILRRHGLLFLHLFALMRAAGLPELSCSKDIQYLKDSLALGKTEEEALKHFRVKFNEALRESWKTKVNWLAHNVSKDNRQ
Sequence (P27986 whole entry partner): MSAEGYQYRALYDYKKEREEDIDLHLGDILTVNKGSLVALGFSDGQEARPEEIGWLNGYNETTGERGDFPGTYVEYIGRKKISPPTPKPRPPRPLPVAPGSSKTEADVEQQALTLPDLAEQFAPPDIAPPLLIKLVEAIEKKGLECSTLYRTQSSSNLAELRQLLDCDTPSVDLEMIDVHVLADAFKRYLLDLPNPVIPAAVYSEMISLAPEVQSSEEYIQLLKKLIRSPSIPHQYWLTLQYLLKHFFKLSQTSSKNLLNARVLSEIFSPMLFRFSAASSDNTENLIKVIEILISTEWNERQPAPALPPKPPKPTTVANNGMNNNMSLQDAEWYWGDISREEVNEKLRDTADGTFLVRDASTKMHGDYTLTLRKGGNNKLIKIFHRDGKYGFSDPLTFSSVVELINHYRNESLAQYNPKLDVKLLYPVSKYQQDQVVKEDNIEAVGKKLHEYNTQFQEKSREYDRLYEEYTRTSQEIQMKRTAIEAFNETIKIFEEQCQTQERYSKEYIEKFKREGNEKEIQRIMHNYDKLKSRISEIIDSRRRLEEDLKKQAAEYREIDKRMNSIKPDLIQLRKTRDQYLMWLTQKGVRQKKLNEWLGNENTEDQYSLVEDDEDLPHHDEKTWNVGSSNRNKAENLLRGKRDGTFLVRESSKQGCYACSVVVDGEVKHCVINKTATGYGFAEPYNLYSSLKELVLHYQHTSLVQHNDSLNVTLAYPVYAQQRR
Assay: Transcreener KINASE Assay, kinase inhibition of p110δ/p85α
Settings: read-out: PI3Kδ IC50
property: pIC50
Note on units: pIC50 is unitless, being -log10 of a concentration expressed in mol/L.

(Q) Name the recorded pIC50 of the compound listed here: CC(Nc1ncnc2[nH]cc(C#N)c12)c1cc2ccc(Cl)n2c(=O)n1-c1cccc(F)c1 (stereo not drawn)
(A) 9.00

(Q) Name the recorded pIC50 of the compound listed here: C[S@+]([O-])c1c[nH]c2ncnc(N3C[C@@H](C#N)C[C@H]3c3nn4ccc(Cl)c4c(=O)n3-c3cccc(F)c3)c12
(A) 7.41

(Q) Name the recorded pIC50 of the compound listed here: C[S+]([O-])c1c[nH]c2ncnc(N3CCC[C@H]3c3nn4ccc(Cl)c4c(=O)n3-c3ccccc3)c12 (stereo partly drawn) [Compound 186]
(A) 9.00

(Q) Name the recorded pIC50 of the compound listed here: N#Cc1c[nH]c2ncnc(N3CC[C@H]3c3nn4ccc(Cl)c4c(=O)n3C3CCC3)c12
(A) 7.37

(Q) Name the recorded pIC50 of the compound listed here: CC(=O)Nc1c[nH]c2ncnc(N3CCC[C@H]3c3nn4ccc(Cl)c4c(=O)n3-c3ccccc3)c12
(A) 8.30

(Q) Name the recorded pIC50 of the compound listed here: O=c1c2c(F)ccn2nc([C@@H]2C[C@H](F)CN2c2ncnc3[nH]cnc23)n1-c1ccccc1
(A) 8.05

(Q) Name the recorded pIC50 of the compound listed here: N#Cc1c[nH]c2ncnc(N3C[C@@H](F)C[C@H]3c3nn4ccc(Cl)c4c(=O)n3Cc3ccccn3)c12
(A) 8.22

(Q) Name the recorded pIC50 of the compound listed here: Nc1nc2cccc(N3CCC[C@H]3c3nn4ccc(Cl)c4c(=O)n3-c3ccccc3)n2n1
(A) 6.68

(Q) Name the recorded pIC50 of the compound listed here: CC(Nc1ncnc2[nH]cc(F)c12)c1cc2ncc(Cl)n2c(=O)n1-c1ccccc1 (stereo not drawn)
(A) 8.40

(Q) Name the recorded pIC50 of the compound listed here: CC(Nc1ncnc2[nH]cnc12)c1cn2ccc(Cl)c2c(=O)n1-c1cccc(F)c1 (stereo not drawn)
(A) 8.52

(Q) Name the recorded pIC50 of the compound listed here: CC(=O)c1cnc(N)nc1N1C[C@H](C)[C@H]1c1nn2ccc(F)c2c(=O)n1-c1ccccc1
(A) 9.00

(Q) Name the recorded pIC50 of the compound listed here: N#Cc1c[nH]c2ncnc(N3CCC[C@H]3c3nn4ccc(C(N)=O)c4c(=O)n3-c3ccccc3)c12
(A) 7.29

(Q) Name the recorded pIC50 of the compound listed here: Nc1nc(N2CC[C@H]2c2nn3ccc(Cl)c3c(=O)n2-c2ccccc2)n2nccc2n1
(A) 7.44

(Q) Name the recorded pIC50 of the compound listed here: O=c1c2c(Cl)ccn2nc([C@@H]2CCCN2c2ncnc3[nH]nnc23)n1-c1ccccc1
(A) 6.62

(Q) Name the recorded pIC50 of the compound listed here: Nc1ncc(Cl)c(N2CC[C@H]2c2nn3ccc(Cl)c3c(=O)n2-c2ccccc2)n1
(A) 7.23

Every entry's value here was drawn from patent US20150307520A1.
